System: HepG2
Assay: Cell cycle arrest in human HepG2 cells assessed as accumulation at G1 phase at 5 uM after 24 hrs by propidium iodide staining-based flow cytometric analysis (reference value: 40.4%)
Type: functional
# Activity per entry

mol.smiles	target.under.test	u	Activity
CCCCCCC#Cc1ccc(CO[C@H]2CN[C@H](C(=O)NCCc3ccccn3)C2)cc1	HepG2	%	74.6
CCCCCCC#Cc1ccc(CO[C@H]2CN[C@H](C(=O)NCc3cc(C(C)(C)C)n[nH]3)C2)cc1	HepG2	%	61.9
CCCCCCC#Cc1ccc(CO[C@H]2CN[C@H](C(=O)NCc3nc4ccccc4[nH]3)C2)cc1	HepG2	%	52.4

Data credit: ChEMBL document CHEMBL4130420
